Tested on: C2A
Assay: qHTS profiling for inhibitors of Plasmodium falciparum proliferation (AID 504749); note: nearly all actives have a fitted effect of over 60% in size; note: potency is the fitted concentration of half-maximal effect
Details: P. falciparum in erythrocytes, SYBR Green DNA, 72 h; series mostly up to 28.7 µM
Results filed as inconclusive are left out. Activity calls are given as the source filed them. Calls come from the whole dose curve; as a rule, active = well fitted inhibition curve with a large enough effect; inconclusive = small, poorly fitted or top-dose-only effect; inactive = flat fitted curve, though single readings scatter.
Quantity: Potency

Below: 4 compounds and their reported Potency.
Data request: Identify measured Potency associated with CNC(C)[C@@H](O)c1ccc(O)cc1 (stereo not given in full)
Data returned: inactive

Data request: Identify measured Potency associated with `CCN[C@]1(c2cccs2)CCCCC1=O`
Data returned: inactive

Data request: Identify measured Potency associated with `CO[C@@H](COC(N)=O)C1=C(N2CC2)C(=O)C(C)=C(N2CC2)C1=O`
Data returned: 0.794 µM (active)

Data request: Identify measured Potency associated with C[C@]12CC[C@H](O)CC1=CCC1C2CC[C@]2(C)C(=O)CC[C@@H]12 (stereo not given in full)
Data returned: inactive

Could you now consider this next compound?
Data request: Identify measured Potency associated with `[Hg+][c]1ccccc1`
Data returned: inactive

====

Biological target: Cytochrome P450 1A2 (Homo sapiens) (UniProt P05177)
Sequence (P05177 whole entry, looked up): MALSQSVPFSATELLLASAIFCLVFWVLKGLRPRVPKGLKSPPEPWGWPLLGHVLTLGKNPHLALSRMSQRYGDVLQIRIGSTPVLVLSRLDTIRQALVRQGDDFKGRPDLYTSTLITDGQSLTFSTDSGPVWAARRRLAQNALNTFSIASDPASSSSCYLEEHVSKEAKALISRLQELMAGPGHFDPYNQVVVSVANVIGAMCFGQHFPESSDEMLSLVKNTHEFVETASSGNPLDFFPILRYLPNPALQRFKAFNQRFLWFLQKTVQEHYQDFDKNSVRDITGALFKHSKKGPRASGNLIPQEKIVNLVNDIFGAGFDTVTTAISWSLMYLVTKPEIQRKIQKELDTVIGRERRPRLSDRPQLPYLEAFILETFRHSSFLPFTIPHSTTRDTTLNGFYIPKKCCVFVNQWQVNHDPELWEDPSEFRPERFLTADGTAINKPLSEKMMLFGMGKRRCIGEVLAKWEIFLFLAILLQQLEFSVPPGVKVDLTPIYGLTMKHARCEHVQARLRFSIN
Test: qHTS for inhibitors of CYPIA2 against the NCATS DSHEA and TCM libraries (AID 1919976)
Conditions: recombinant CYP1A2 enzyme activity, luminescence; series mostly up to 37 µM
Results filed as inconclusive are left out. Calls of active or inactive are those of the source. Calls follow the shape of the dose curve; as a rule, active = well fitted inhibition curve with a large enough effect; inconclusive = small, poorly fitted or top-dose-only effect; inactive = no such curve, though single readings can be large or run the other way.
Pick one and only one: active, inactive

Data request: Could you check what this test reported for `C=C(C)[C@@H]1CCC(C)=C[C@H]1c1c(O)cc(CCCCC)cc1O` ?
Data returned: active

Data request: Could you check what this test reported for `CCCCCCCCCCCCCCCCCCCC(=O)O` ?
Data returned: active

Data request: Could you check what this test reported for COc1cc2c(cc1O)CC1c3c(cc(O)c(OC)c3-2)CCN1C (centres undefined) ?
Data returned: active

Data request: Could you check what this test reported for N#CC(O[C@@H]1O[C@H](CO[C@@H]2O[C@H](CO)[C@@H](O)[C@H](O)[C@H]2O)[C@@H](O)[C@H](O)[C@H]1O)c1ccccc1 (some centres undefined) ?
Data returned: inactive

====

Test: Cell Viability - Jurkat (AID 426);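 note: potency is the fitted concentration of half-maximal effect; cells exposed to compound for 40 hours at 37 °C before ATP read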
Conditions: qHTS
Inconclusive results are not listed. Active and inactive are the calls of the source.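 Rule for the calls: active = dose-dependent loss of cell ATP signal giving a full or clear fitted curve, ranked by lower potency value; inconclusive = weak partial curve or response only at the top dose; inactive = no loss of viability signal.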
Pick one and only one: active, inactive

Data request: Could you check what this test reported for `CCCC(=O)Cl` ?
Data returned: inactive

Data request: Could you check what this test reported for `CCOP(=S)(OCC)SCSC(C)(C)C` ?
Data returned: inactive

Data request: Could you check what this test reported for `CCCCOC(=O)c1ccccc1C(=O)OCCCC` ?
Data returned: inactive

Data request: Could you check what this test reported for `C=CCc1ccc(OC)cc1` ?
Data returned: inactive

Data request: Could you check what this test reported for `CCC[CH2][Sn]([Cl])([Cl])[Cl]` ?
Data returned: inactive

Data request: Could you check what this test reported for `Cc1cccc(C#N)c1` ?
Data returned: inactive

Data request: Could you check what this test reported for `c1ccc(-c2ccccc2)cc1` ?
Data returned: inactive

Data request: Could you check what this test reported for `CCOc1ccc(N)cc1` ?
Data returned: inactive

Data request: Could you check what this test reported for `ClCBr` ?
Data returned: inactive

Data request: Could you check what this test reported for `COc1ccc(N)cc1` ?
Data returned: inactive

Data request: Could you check what this test reported for C1CCC2CCCCC2C1 (centres undefined) ?
Data returned: inactive

Data request: Could you check what this test reported for `O=C1C(Cl)=C(Cl)C(=O)C(Cl)=C1Cl` ?
Data returned: active

Data request: Could you check what this test reported for `C=C(C)C#N` ?
Data returned: inactive

Data request: Could you check what this test reported for `CNC(=O)O/N=C/C(C)(C)SC` ?
Data returned: inactive

Data request: Could you check what this test reported for `O=C(Cl)C(Cl)(Cl)Cl` ?
Data returned: inactive

Data request: Could you check what this test reported for `Nc1ccc(Br)cc1` ?
Data returned: inactive

Data request: Could you check what this test reported for `C=CCOC(=O)c1ccccc1N` ?
Data returned: inactive

Data request: Could you check what this test reported for `CCSC(=O)Cl` ?
Data returned: inactive

Data request: Could you check what this test reported for COC1=CC(=O)OC(CCc2ccccc2)C1 (centres undefined) ?
Data returned: inactive

====

Assay: Primary qHTS for inhibitors of MERS-S pseudo-typed particle cell entry (AID 1479149); note: nearly all actives have a fitted effect of over 60% in size
Details: MERS-S pseudotyped particle entry, luciferase; series mostly up to 57.1 µM
Records with an inconclusive call do not appear. Active and inactive are the calls of the source. The call rests on the fitted dose curve.
Pick one and only one: t = active, f = inactive

Data request: Could you check what this test reported for CCC(c1ccccc1)c1c(O)c2ccccc2oc1=O (configuration not stated) ?
Data returned: f

Data request: Could you check what this test reported for `C[C@@H](c1nc(-c2ccc(C#N)cc2)cs1)[C@](O)(Cn1cncn1)c1cc(F)ccc1F` ?
Data returned: t

Data request: Could you check what this test reported for `CCC(=O)O[C@@H]1[C@@H](C)O[C@@H](O[C@H]2[C@H](N(C)C)[C@@H](O)[C@H](O[C@H]3[C@@H](CC=O)C[C@@H](C)[C@@H](OC(C)=O)/C=C/C=C/C[C@@H](C)OC(=O)C[C@@H](OC(=O)CC)[C@@H]3OC)O[C@@H]2C)C[C@]1(C)OC(C)=O` ?
Data returned: f

Data request: Could you check what this test reported for `CCCCC(=O)O[C@]1(C(=O)COC(C)=O)CC[C@H]2[C@@H]3CCC4=CC(=O)C=C[C@]4(C)[C@H]3[C@@H](O)C[C@@]21C` ?
Data returned: f

Data request: Could you check what this test reported for `CNC[C@@H]1CC[C@@H](N)[C@@H](O[C@H]2[C@H](O)[C@@H](O[C@H]3OC[C@](C)(O)[C@H](NC)[C@H]3O)[C@H](N)C[C@@H]2N)O1` ?
Data returned: f

Data request: Could you check what this test reported for `C/C(=C\C(=O)OCCCCCCCCC(=O)O)C[C@@H]1OC[C@H](C[C@@H]2O[C@H]2[C@@H](C)[C@H](C)O)[C@@H](O)[C@H]1O` ?
Data returned: f

Data request: Could you check what this test reported for `CC(C)N1CCN(c2ccc(OC[C@@H]3CO[C@@](Cn4cncn4)(c4ccc(Cl)cc4Cl)O3)cc2)CC1` ?
Data returned: f

Data request: Could you check what this test reported for `CO/N=C(\C(=O)N[C@@H]1C(=O)N2C(C(=O)O)=C(CSc3nnnn3C)CS[C@H]12)c1csc(N)n1` ?
Data returned: f

Data request: Could you check what this test reported for CC1(C)C(C=C(Cl)Cl)C1C(=O)OCc1cccc(Oc2ccccc2)c1 (configuration not stated) ?
Data returned: f

Data request: Could you check what this test reported for `CN(C)Cc1ccccc1` ?
Data returned: f

Data request: Could you check what this test reported for `CC(C)N=c1cc2n(-c3ccc(Cl)cc3)c3ccccc3nc-2cc1Nc1ccc(Cl)cc1` ?
Data returned: f

Data request: Could you check what this test reported for `CC(C)(C)NC(=O)[C@@H]1C[C@@H]2CCCC[C@H]2CN1C[C@@H](O)[C@H](Cc1ccccc1)NC(=O)[C@H](CC(N)=O)NC(=O)c1ccc2ccccc2n1` ?
Data returned: f

====

Assay: Primary qHTS for inhibitors of SARS-S pseudo-typed particle cell entry (AID 1479145); note: nearly all actives have a fitted effect of over 45% in size
Conditions: SARS-S pseudotyped particle cell entry, luciferase reporter; series mostly up to 57.1 µM
Results filed as inconclusive are left out. Activity calls are given as the source filed them. The call rests on the fitted dose curve.
Pick one and only one: active, inactive

Data request: Could you check what this test reported for `CC1(C)S[C@@H]2[C@@H](N3C(=O)[C@@H](c4ccccc4)NC3(C)C)C(=O)N2[C@H]1C(=O)O` ?
Data returned: inactive

Data request: Could you check what this test reported for `CC(C)C[C@H](NC(=O)CNC(=O)c1cc(Cl)ccc1Cl)B1OC(=O)C(CC(=O)O)(CC(=O)O)O1` ?
Data returned: inactive

Data request: Could you check what this test reported for `CC[C@H]1OC(=O)[C@H](C)[C@@H](O[C@H]2C[C@@](C)(OC)[C@@H](O)[C@H](C)O2)[C@H](C)[C@@H](O[C@@H]2O[C@H](C)C[C@H](N(C)C)[C@H]2O)[C@](C)(OC)C[C@@H](C)C(=O)[C@H](C)[C@@H](O)[C@]1(C)O` ?
Data returned: inactive

Data request: Could you check what this test reported for `CCCCCCCCCCCCCCCC(=O)OCC=C(C)C=CC=C(C)C=CC1=C(C)CCCC1(C)C` ?
Data returned: inactive

Data request: Could you check what this test reported for CC(=O)OC1C[C@H](O[C@@H]2C(O)C[C@H](O[C@@H]3C(O)C[C@@H](OC4CC[C@]5(C)C(CCC6C5CC(O)[C@@]5(C)C(C7=CC(=O)OC7)CC[C@@]65O)C4)OC3C)OC2C)O[C@H](C)[C@H]1O[C@H]1OC(CO)C(O)C(O)C1O (some centres undefined) ?
Data returned: active

Data request: Could you check what this test reported for `Nc1nc(NC2CC2)c2ncn([C@H]3C=C[C@@H](CO)C3)c2n1` ?
Data returned: inactive

Data request: Could you check what this test reported for `O=S(=O)(O)Oc1ccc(C(c2ccc(OS(=O)(=O)O)cc2)c2ccccn2)cc1` ?
Data returned: inactive

Data request: Could you check what this test reported for NC(=O)CCC1NC(=O)C(Cc2ccccc2)NC(=O)C(Cc2ccc(O)cc2)NC(=O)CCSSCC(C(=O)N2CCCC2C(=O)NC(CCCN=C(N)N)C(=O)NCC(N)=O)NC(=O)C(CC(N)=O)NC1=O (centres undefined) ?
Data returned: inactive

Data request: Could you check what this test reported for `OC[C@H]1O[C@@H](OC[C@H]2O[C@@H](O[C@@H]3[C@@H](O)[C@H](O)O[C@H](CO)[C@H]3O)[C@H](O)[C@@H](O[C@@H]3O[C@H](CO)[C@@H](O)[C@H](O)[C@H]3O)[C@@H]2O)[C@H](O)[C@@H](O)[C@@H]1O` ?
Data returned: inactive
